Molecular target: c-Myc/Max/Ebox DNA (Homo sapiens, UniProt P01106)
Sequence (P01106 16-454): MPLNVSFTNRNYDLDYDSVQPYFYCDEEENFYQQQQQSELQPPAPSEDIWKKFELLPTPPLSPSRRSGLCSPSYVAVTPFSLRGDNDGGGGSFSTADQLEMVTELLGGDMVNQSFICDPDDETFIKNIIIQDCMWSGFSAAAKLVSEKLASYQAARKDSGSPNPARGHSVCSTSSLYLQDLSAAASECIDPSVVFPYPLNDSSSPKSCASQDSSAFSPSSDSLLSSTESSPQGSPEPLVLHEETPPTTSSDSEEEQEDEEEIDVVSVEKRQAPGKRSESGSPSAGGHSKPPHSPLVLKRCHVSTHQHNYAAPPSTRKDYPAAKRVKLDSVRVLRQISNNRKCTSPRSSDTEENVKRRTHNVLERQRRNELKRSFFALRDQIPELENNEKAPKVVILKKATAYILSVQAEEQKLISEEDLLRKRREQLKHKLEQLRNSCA
Assay: c-Myc/Max/Ebox DNA AlphaScreen assay
Assay type: binding
Parameters: An exemplary assay uses full-length human c-Myc and Max proteins; his6 (cleaved yes); made in house
Settings: c-Myc/Max/Ebox DNA AlphaScreen; NA: inactive under assay conditions; read-out: Biochemical IC50
pIC50: −log10 of the molar value.
Lab note: compare pIC50 against 4. Equal or greater, write 1. Smaller, write 0.

Example results:
{"molecule": "Cc1ccc(C)n1-c1cc(C(=O)N/N=C\\c2ccc(S(=O)(=O)O)cc2)ccc1C(=O)O", "measured-on": "c-Myc/Max/Ebox DNA (Homo sapiens, UniProt P01106)", "class-name": 1}
{"molecule": "Cc1cc(C(=O)N/N=C/c2ccccc2)c(C)n1-c1ccccc1C(=O)O", "measured-on": "c-Myc/Max/Ebox DNA (Homo sapiens, UniProt P01106)", "class-name": 1}
{"molecule": "COc1cc(C(=O)O)c(-n2c(C)ccc2C)cc1OC [Compound 145]", "measured-on": "c-Myc/Max/Ebox DNA (Homo sapiens, UniProt P01106)", "class-name": 1}
{"molecule": "Cc1ccc(C)n1-c1cc(C(=O)N/N=C/c2cncnc2)ccc1C(=O)O", "measured-on": "c-Myc/Max/Ebox DNA (Homo sapiens, UniProt P01106)", "class-name": 1}
{"molecule": "Cc1ccc(-c2ccc(-n3c(C)ccc3C)c(C(=O)O)c2)cc1", "measured-on": "c-Myc/Max/Ebox DNA (Homo sapiens, UniProt P01106)", "class-name": 0}

Quick check: does Cc1ccc(-c2ccccc2)n1-c1ccccc1C(=O)O have pIC50 greater than or equal to 4? 0

###

Biological target: c-Myc/Max/Ebox DNA (Homo sapiens)
Assay: c-Myc/Max/Ebox DNA AlphaScreen assay
Type: binding
Design: An exemplary assay uses full-length human c-Myc and Max proteins; his6 (cleaved yes); made in house
Conditions: c-Myc/Max/Ebox DNA AlphaScreen; NA: inactive under assay conditions; read-out: Biochemical IC50
observed-property: IC50
Numeric answer plus unit only.

{"compound": "Cc1cc(/C=C2\\C(=O)NC(=O)N(C)C2=O)c(C)n1-c1cccc(C(=O)O)c1", "IC50": "76.8 µM"}
{"compound": "Cc1ccc(C)n1-c1cc(C(=O)N/N=C/c2ccc(O)c(O)c2O)ccc1C(=O)O", "IC50": "0.531 µM"}
{"compound": "Cc1cc2c(n1-c1ccc(C(=O)O)cc1)CC(C)(C)CC2=O", "IC50": "446 µM"}
{"compound": "Cc1cc(/C=N/NC(N)=S)c(C)n1-c1ccccc1C(=O)O", "IC50": "16.3 µM"}
{"compound": "Cc1ccc(C)n1-c1ccc(C(=O)O)c(Cl)c1", "IC50": "81.5 µM"}
{"compound": "CC(=O)OCOC(=O)c1ccccc1-n1cccc1", "IC50": "150 µM"}

Look up IC50: Cc1ccc(C)n1-c1ccc(C(=O)O)cc1O 23.5 µM

And CCOC(=O)c1ccc(-n2c(CCC(=O)O)ccc2-c2cccs2)cc1O ? 124 µM

And Cc1ccc(C)n1-c1ccc(C(=O)O)c([N+](=O)[O-])c1 ? 155 µM

And Cc1ccc(C)n1-c1cc(C(=O)N/N=C/c2cc(C(F)(F)F)cc(C(F)(F)F)c2)ccc1C(=O)O ? 3.84 µM

And CC(=O)Nc1ccc(N2CCCC(C)C2)c(C(=O)O)c1 (stereo not drawn) ? 191 µM

And Cc1ccc(C)n1-c1cc(C(=O)N/N=C/c2c[nH]cn2)ccc1C(=O)O ? 1.75 µM

And CC(=O)OCOC(=O)c1ccccc1-n1c(C)ccc1C [Compound 149] ? 101 µM

And CC(=O)Nc1ccc(N2CCCCCC2)c(C(=O)O)c1 ? 171 µM

###

Target: c-Myc/Max/Ebox DNA (Homo sapiens)
Assay: c-Myc/Max/Ebox DNA AlphaScreen assay
Assay type: binding
Set-up: An exemplary assay uses full-length human c-Myc and Max proteins; his6 (cleaved yes); made in house
Settings: c-Myc/Max/Ebox DNA AlphaScreen; NA: inactive under assay conditions; read-out: Biochemical IC50
observed-property: log10 of IC50 (log10 of the value in µM)
Please interpret these as log10 of IC50 where IC50 is in µM.

{"compound": "COC(=O)c1ccc(-n2c(C)ccc2C)cc1O", "observed-property": "log10 of IC50", "number": 0.19}

Look up log10 of IC50: O=C(O)c1ccc(-n2cccc2)cc1O 2.22

And Cc1ccc(C)n1-c1cc(C(=O)NCCc2c[nH]cn2)ccc1C(=O)O ? 1.19

And Cc1ccc(C)n1-c1cc(C(=O)N/N=C/c2ccccc2)ccc1C(=O)O [Compound 121] ? 0.89

###

Listing of recorded IC50 by entry.
Target: c-Myc/Max/Ebox DNA (Homo sapiens)
Assay: c-Myc/Max/Ebox DNA AlphaScreen assay
Format: binding
Design: An exemplary assay uses full-length human c-Myc and Max proteins; his6 (cleaved yes); made in house
Conditions: c-Myc/Max/Ebox DNA AlphaScreen; NA: inactive under assay conditions; read-out: Biochemical IC50
Provide only the numeric value, understood in µM.

Consider the reported IC50 for these molecules:
{"mol-smiles": "COC(=O)c1ccccc1-n1c(C)ccc1C", "observed-property": "IC50", "number": 97.3}
{"mol-smiles": "Cc1ccc(C)n1-c1cc(C(=O)N/N=C/c2ccc3ccccc3n2)ccc1C(=O)O", "observed-property": "IC50", "number": 17.5}

Okay, now this molecule:
Look up IC50: Cc1ccc(C)n1-c1cc(C(=O)N/N=C/c2cc(F)ccc2C(F)(F)F)ccc1C(=O)O 3.99

###

Target: c-Myc/Max/Ebox DNA (Homo sapiens, UniProt P01106)
Test: c-Myc/Max/Ebox DNA AlphaScreen assay
Type: binding
Set-up: An exemplary assay uses full-length human c-Myc and Max proteins; his6 (cleaved yes); made in house
Conditions: c-Myc/Max/Ebox DNA AlphaScreen; NA: inactive under assay conditions; read-out: Biochemical IC50
Listing of recorded pIC50 by entry.
Worth noting: pIC50 values are minus log10 of concentrations stated in mol/L.

Consider the reported pIC50 for these molecules:
{"mol-smiles": "Cc1ccc(C)n1-c1cc(C(=O)N/N=C/c2ccc(S(=O)(=O)O)o2)ccc1C(=O)O", "pIC50": 6.27}
{"mol-smiles": "O=C(O)c1ccccc1-n1c(-c2ccccc2)cc2c1CCCC2=O", "pIC50": 3.60}
{"mol-smiles": "Cc1ccc(C)n1-c1cc(C(=O)NCCc2ccc(O)c(O)c2)ccc1C(=O)O", "pIC50": 4.48}
{"mol-smiles": "Cc1ccc(C)n1-c1cc(C(=O)N/N=C/c2cc(C(=O)O)ccc2F)ccc1C(=O)O", "pIC50": 5.90}
{"mol-smiles": "Cc1ccc(C)n1-c1ccc(Br)cc1C(=O)O", "pIC50": 4.19}

Look up pIC50: Cc1ccc(C)n1-c1cc(C(=O)N/N=C/c2cccc(C(=O)O)c2)ccc1C(=O)O 6.41
